- system-tested: human recombinant adrenergic α1D receptor (Homo sapiens, UniProt P25100)
- Construct: expressed in transfected cells; host or cells: HEK-293
- Sequence (P25100 whole entry): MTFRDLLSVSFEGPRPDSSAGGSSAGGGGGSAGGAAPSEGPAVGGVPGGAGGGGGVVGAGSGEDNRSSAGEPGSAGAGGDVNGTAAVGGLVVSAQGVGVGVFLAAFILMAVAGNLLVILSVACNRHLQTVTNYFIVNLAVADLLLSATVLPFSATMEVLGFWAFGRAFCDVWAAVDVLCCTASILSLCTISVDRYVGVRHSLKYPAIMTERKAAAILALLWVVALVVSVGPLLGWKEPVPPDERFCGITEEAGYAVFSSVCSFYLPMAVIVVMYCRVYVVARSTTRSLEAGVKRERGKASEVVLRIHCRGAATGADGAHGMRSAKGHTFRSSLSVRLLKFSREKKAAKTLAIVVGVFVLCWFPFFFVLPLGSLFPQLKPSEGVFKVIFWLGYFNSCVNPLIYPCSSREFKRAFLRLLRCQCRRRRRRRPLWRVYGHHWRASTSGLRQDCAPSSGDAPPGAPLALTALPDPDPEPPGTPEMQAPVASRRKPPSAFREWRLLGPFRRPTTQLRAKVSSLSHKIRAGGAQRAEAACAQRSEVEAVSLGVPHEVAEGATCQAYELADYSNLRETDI
- test-protocol: Radioligand binding, adrenergic α1D ([3H]Prazosin)
- condition-summary: 0.1 μM compound; read-out: Percentage inhibition of ligand binding, Adrenergic α1D
- Method: Compounds were incubated with 0.6 nM [3H]Prazosin for 60 min at 25° C. Non-specific binding was estimated in the presence of 10 μM phentolamine. Receptor proteins were filtered and washed, the filters were then counted to determine [3H]Prazosin specifically bound. […] Biochemical assay results are presented as the percent inhibition of specific binding in Table B1.
As shown below, each of these molecules has a reported inhibition at 0.1 µM value.

[
  {
    "molecule": "COc1ccc(C#Cn2c3c(c4cc(Cl)ccc42)CCN(C)CC3)cc1F [compound 242]",
    "measure-unit": "%",
    "inhibition at 0.1 µM": 37
  },
  {
    "molecule": "Cc1ccc2c(c1)c1c(n2CCc2cccc(C)n2)CCN(C)C1 [compound 297]",
    "measure-unit": "%",
    "inhibition at 0.1 µM": 36
  },
  {
    "molecule": "CN1CCc2c(c3cccnc3n2CCc2ccc(C(F)(F)F)nc2)C1 [II-103]",
    "measure-unit": "%",
    "inhibition at 0.1 µM": 8
  },
  {
    "molecule": "Cc1ccc2c(c1)c1c(n2CCc2cscc2C)CCN(C)C1 [compound 318]",
    "measure-unit": "%",
    "inhibition at 0.1 µM": 60
  },
  {
    "molecule": "C/C(=C/n1c2c(c3cc(C)ccc31)CN(C)CC2)c1ccnn1C [compound 273]",
    "measure-unit": "%",
    "inhibition at 0.1 µM": 71
  },
  {
    "molecule": "Cc1ccc2c(c1)c1c(n2CCc2nc(-c3ccc(Cl)cc3)cs2)CCN(C)C1 [compound 326]",
    "measure-unit": "%",
    "inhibition at 0.1 µM": 35
  },
  {
    "molecule": "C/C(=C\\n1c2c(c3cc(C)ccc31)CN(C)CC2)c1ccc(C(F)(F)F)nc1 [compound 331]",
    "measure-unit": "%",
    "inhibition at 0.1 µM": 70
  },
  {
    "molecule": "Cc1ccc(CCn2c3c(c4cc(Cl)c(Cl)cc42)CN(C)CC3)cn1 [compound 322]",
    "measure-unit": "%",
    "inhibition at 0.1 µM": 22
  },
  {
    "molecule": "C/C(=C\\n1c2c(c3cc(C)ccc31)CN(C)CC2)c1ccc2[nH]cnc2c1 [compound 282]",
    "measure-unit": "%",
    "inhibition at 0.1 µM": 30
  },
  {
    "molecule": "Cc1ccc2c(c1)c1c(n2CCc2cccc3c2CCNC3)CCN(C)C1 [compound 317]",
    "measure-unit": "%",
    "inhibition at 0.1 µM": 71
  },
  {
    "molecule": "C/C(=C\\n1c2c(c3cc(Cl)ccc31)CN(C)C(C)C2)c1ccc(C)nc1 (centres unmarked) [compound 257]",
    "measure-unit": "%",
    "inhibition at 0.1 µM": 24
  },
  {
    "molecule": "C/C(=C/n1c2c(c3cc(C)ccc31)CN(C)CC2)c1cc2ccccc2s1 [compound 293]",
    "measure-unit": "%",
    "inhibition at 0.1 µM": 82
  },
  {
    "molecule": "C/C(=C\\n1c2c(c3cc(C)ccc31)CN(C)CC2)c1ccc(F)nc1 [II-96]",
    "measure-unit": "%",
    "inhibition at 0.1 µM": 31
  },
  {
    "molecule": "CSc1cccc(/C(C)=C/n2c3c(c4cc(C)ccc42)CN(C)CC3)c1 [compound 268]",
    "measure-unit": "%",
    "inhibition at 0.1 µM": 39
  },
  {
    "molecule": "Cc1ccc2c(c1)c1c(n2C2=C(c3cccc4ccccc34)CCC2)CCN(C)C1 [compound 306]",
    "measure-unit": "%",
    "inhibition at 0.1 µM": 12
  },
  {
    "molecule": "Cc1ccc2c(c1)c1c(n2C2=C(c3cnc(N(C)C)nc3)CCC2)CCN(C)C1 [compound 303]",
    "measure-unit": "%",
    "inhibition at 0.1 µM": 51
  },
  {
    "molecule": "C/C(=C/n1c2c(c3cc(Cl)ccc31)CN(C)CC2)c1cc(F)c(F)cc1Cl [compound 252]",
    "measure-unit": "%",
    "inhibition at 0.1 µM": 13
  }
]
